Origin of measurements: paper PMC5793070

Test system: breast cancer cell line MCF7
Test: MTT cytotoxicity assay against MCF7
Conditions: human, 48 h
Description: Two human cancer cell lines, liver cancer cell line HepG2, and breast cancer cell line MCF7, were used in the assays. HepG2 and MCF7 cell lines were purchased from Peking Union Medical College, Cell Bank (Beijing, China). […] Cell viability was detected by MTT colorimetric assay. […] Absorbance was detected at 550 nm and cell viability was expressed as the mean percentage of the absorbance in treated vs. control cells. […]
Numbered stars: 1 amine (or outer) side, 2 acyl side, 3 side chain; on linkers, the order of the positions; unused ones are H or OH. Square brackets hold non-standard residues; d marks the D form. Peptide text beside a SMILES is read from it. Hexadecanoyl(3R-amino) = CCCCCCCCCCCCC[C@H](CC(=O)[*:2])N[*:1]; X1 = CCC(C)CCCCCCCCCC[C@H](CC(=O)[*:2])N[*:1]; X3 = CC(C)CCCCCCCCCC[C@H](CC(=O)[*:2])N[*:1]
reported-metric: pIC50
Answer as the number alone; pIC50 is minus log10 of concentration in mol/L.

Inquiry: Provide breast cancer cell line MCF7 pIC50 reading for CCC(C)CCCCCCCCCC[C@@H]1CC(=O)N[C@@H](CC(N)=O)C(=O)N[C@H](Cc2ccc(O)cc2)C(=O)N[C@H](CC(N)=O)C(=O)N2CCC[C@H]2C(=O)N[C@@H](CCC(=O)O)C(=O)N[C@H](CO)C(=O)N[C@@H]([C@@H](C)O)C(=O)N1 (stereo partly drawn) [Compound 10, anteiso-C17 bacillomycin D] (cyclo(E[dS]T[X1]N[dY][dN]P)) .
Reply text: 5.14

Inquiry: System breast cancer cell line MCF7. Read-out pIC50. Item CC(C)CCCCCCCCCC[C@@H]1CC(=O)N[C@@H](CC(N)=O)C(=O)N[C@H](Cc2ccc(O)cc2)C(=O)N[C@H](CC(N)=O)C(=O)N2CCC[C@H]2C(=O)N[C@@H](CCC(=O)O)C(=O)N[C@H](CO)C(=O)N[C@@H]([C@@H](C)O)C(=O)N1 [Compound 8, iso-C16 bacillomycin D] (cyclo(E[dS]T[X3]N[dY][dN]P)) . Report value.
Reply text: 5.54

Inquiry: Param request: pIC50 | system breast cancer cell line MCF7 | item CCCCCCCCCCCCC[C@@H]1CC(=O)N[C@@H](CC(N)=O)C(=O)N[C@H](Cc2ccc(O)cc2)C(=O)N[C@H](CC(N)=O)C(=O)N2CCC[C@H]2C(=O)N[C@@H](CCC(=O)O)C(=O)N[C@H](CO)C(=O)N[C@@H]([C@@H](C)O)C(=O)N1 [Compound 9, C16 bacillomycin D] (cyclo(E[dS]T[Hexadecanoyl(3R-amino)]N[dY][dN]P))
Reply text: 5.48

====

Hi there, I'd appreciate the recorded pIC50 for every entry that follows.
Tested on: liver cancer cell line HepG2
Test: MTT cytotoxicity assay against HepG2
Conditions: human, 48 h
Numbered stars: 1 amine (or outer) side, 2 acyl side, 3 side chain; on linkers, the order of the positions; unused ones are H or OH. Square brackets hold non-standard residues; d marks the D form. Peptide text beside a SMILES is read from it. Hexadecanoyl(3R-amino) = CCCCCCCCCCCCC[C@H](CC(=O)[*:2])N[*:1]; X3 = CC(C)CCCCCCCCCC[C@H](CC(=O)[*:2])N[*:1]
# pIC50 = -log10(concentration in molar units)

Inquiry: # return recorded pIC50 for input CCCCCCCCCCCCC[C@@H]1CC(=O)N[C@@H](CC(N)=O)C(=O)N[C@H](Cc2ccc(O)cc2)C(=O)N[C@H](CC(N)=O)C(=O)N2CCC[C@H]2C(=O)N[C@@H](CCC(=O)O)C(=O)N[C@H](CO)C(=O)N[C@@H]([C@@H](C)O)C(=O)N1 [Compound 9, C16 bacillomycin D] (cyclo(E[dS]T[Hexadecanoyl(3R-amino)]N[dY][dN]P))
Reply text: 5.31

Inquiry: Entry CC(C)CCCCCCCCCC[C@@H]1CC(=O)N[C@@H](CC(N)=O)C(=O)N[C@H](Cc2ccc(O)cc2)C(=O)N[C@H](CC(N)=O)C(=O)N2CCC[C@H]2C(=O)N[C@@H](CCC(=O)O)C(=O)N[C@H](CO)C(=O)N[C@@H]([C@@H](C)O)C(=O)N1 [Compound 8, iso-C16 bacillomycin D] (cyclo(E[dS]T[X3]N[dY][dN]P)) needs its pIC50 filled in; supply it.
Reply text: 5.29
